Target: Glutamate NMDA receptor; Grin1/Grin2c (Rattus norvegicus) (UniProt P35439+Q00961)
Experiment: Negative allosteric modulation of recombinant rat GluN1/GluN2C expressed in Xenopus laevis oocytes assessed as inhibition of glutamate/glycine-induced current response at 30 uM at -40 mV holding potential by two-electrode voltage clamp method relative to glutamate/glycine
Type: cell-based
Details: values are per cent of control
Sorting guide: entries reporting residual activity beneath 40% go in the class 1 pile, the rest go in the class 0 pile.

Example results:
Input line: I wonder whether "CCN(CC)C(=O)Oc1ccc(C(=O)Nc2cccc(CCNS(=O)(=O)c3cccnc3)c2)cc1" has residual activity below 40%. Can you tell?
Output line: class 1

Input line: I wonder whether "CCN(CC)C(=O)Oc1ccc(C(=O)Nc2ccc(CCNS(=O)(=O)c3cccnc3)cc2)cc1" has residual activity below 40%. Can you tell?
Output line: class 1

Input line: I wonder whether "CCN(CC)C(=O)Oc1ccc(C(=O)Nc2ccc(CNS(=O)(=O)c3ccccc3)cc2)cc1" has residual activity below 40%. Can you tell?
Output line: class 0

Others:
Input line: I wonder whether "CCN(CC)C(=O)Oc1ccc(C(=O)Nc2cccc(CNS(=O)(=O)c3cccnc3)c2)cc1" has residual activity below 40%. Can you tell?
Output line: class 0

###

Target: Ionotropic glutamate receptor NMDA 1/2D (Rattus norvegicus) (UniProt P35439+Q62645)
Test: Negative allosteric modulation of recombinant rat GluN1/GluN2D expressed in Xenopus laevis oocytes assessed as inhibition of glutamate/glycine-induced current response at saturated concentration at -40 mV holding potential by two-electrode voltage clamp method relative to glutamate/glycine
Format: cell-based
Quick reference for inhibition among some compounds

Input line: Entry under review: "CCN(CC)C(=O)Oc1ccc(C(=O)Nc2ccc(CNS(=O)(=O)c3ccccc3)cc2)cc1" . Reported inhibition?
Output line: 27%

Input line: Entry under review: "CCN(CC)C(=O)Oc1ccc(C(=O)Nc2ccc(CCNS(=O)(=O)c3ccccc3)cc2)cc1" . Reported inhibition?
Output line: 0%

Input line: Entry under review: "CCN(CC)C(=O)Oc1ccc(C(=O)Nc2cccc(CCNS(=O)(=O)c3ccc(F)c(Cl)c3)c2)cc1" . Reported inhibition?
Output line: 0%

Input line: Entry under review: "CCN(CC)C(=O)Oc1ccc(C(=O)Nc2cccc(CNS(=O)(=O)c3ccccc3)c2)cc1" . Reported inhibition?
Output line: 0%

Others:
Input line: Entry under review: "CCN(CC)C(=O)Oc1ccc(C(=O)Nc2cccc(CNS(=O)(=O)c3cccnc3)c2)cc1" . Reported inhibition?
Output line: 0%

###

Molecular target: Ionotropic glutamate receptor NMDA 1/2D (Rattus norvegicus, UniProt P35439+Q62645)
Test: Negative allosteric modulation of recombinant rat GluN1/GluN2D expressed in Xenopus laevis oocytes assessed as inhibition of glutamate/glycine-induced current response at -40 mV holding potential by two-electrode voltage clamp method
pIC50: −log10 of the molar value.
Param threshold (5) applies to pIC50; output Met when value >= threshold, Not met when value < threshold.

Input line: Is pIC50 at least 5? Consider "CCN(CC)C(=O)Oc1ccc(C(=O)Nc2ccc(C(=O)Nc3ccccc3)cc2)cc1"
Output line: Not met

Others:
Input line: Is pIC50 at least 5? Consider "CCN(CC)C(=O)Oc1ccc(C(=O)Nc2cccc(CCNS(=O)(=O)c3ccc(F)c(Cl)c3)c2)cc1"
Output line: Met

Input line: Is pIC50 at least 5? Consider "CCN(CC)C(=O)Oc1ccc(C(=O)Nc2cccc(CCNS(=O)(=O)c3cccnc3)c2)cc1"
Output line: Met

Input line: Is pIC50 at least 5? Consider "CCN(CC)C(=O)Oc1ccc(C(=O)Nc2cccc(CCNC(=O)c3ccccc3)c2)cc1"
Output line: Not met

Input line: Is pIC50 at least 5? Consider "CCN(CC)C(=O)Oc1ccc(C(=O)Nc2cccc(CNS(=O)(=O)c3ccccc3)c2)cc1"
Output line: Not met

Input line: Is pIC50 at least 5? Consider "CCN(CC)C(=O)Oc1ccc(C(=O)Nc2ccc(CNS(=O)(=O)c3cccnc3)cc2)cc1"
Output line: Not met

Input line: Is pIC50 at least 5? Consider "CCN(CC)C(=O)Oc1ccc(C(=O)Nc2ccc(CCNS(=O)(=O)c3cccnc3)cc2)cc1"
Output line: Met

Input line: Is pIC50 at least 5? Consider "CCN(CC)C(=O)Oc1ccc(C(=O)Nc2cccc3cc[nH]c23)cc1"
Output line: Met

Input line: Is pIC50 at least 5? Consider "CCN(CC)C(=O)Oc1ccc(C(=O)Nc2cccc(CNS(=O)(=O)c3cccnc3)c2)cc1"
Output line: Not met

Input line: Is pIC50 at least 5? Consider "CCN(CC)C(=O)Oc1ccc(C(=O)Nc2cccc(CCNS(=O)(=O)c3ccccc3)c2)cc1"
Output line: Met

###

Biological target: Glutamate NMDA receptor; Grin1/Grin2c (Rattus norvegicus, UniProt P35439+Q00961)
Assay: Negative allosteric modulation of recombinant rat GluN1/GluN2C expressed in Xenopus laevis oocytes assessed as inhibition of glutamate/glycine-induced current response at -40 mV holding potential by two-electrode voltage clamp method
pIC50: −log10 of the molar value.
Param threshold (5) applies to pIC50; output True when value >= threshold, False when value < threshold.

Example results:
Input line: Is pIC50 at least 5? Consider "CCN(CC)C(=O)Oc1ccc(C(=O)Nc2cccc(CNS(=O)(=O)c3ccccc3)c2)cc1"
Output line: False

Input line: Is pIC50 at least 5? Consider "CCN(CC)C(=O)Oc1ccc(C(=O)Nc2cccc(CCNC(=O)c3ccccc3)c2)cc1"
Output line: False

Input line: Is pIC50 at least 5? Consider "CCN(CC)C(=O)Oc1ccc(C(=O)Nc2ccc(CNS(=O)(=O)c3ccccc3)cc2)cc1"
Output line: False

Input line: Is pIC50 at least 5? Consider "CCN(CC)C(=O)Oc1ccc(C(=O)Nc2cccc(CNS(=O)(=O)c3cccnc3)c2)cc1"
Output line: False

Input line: Is pIC50 at least 5? Consider "CCN(CC)C(=O)Oc1ccc(C(=O)Nc2cccc(CCNS(=O)(=O)c3cccnc3)c2)cc1"
Output line: True

Input line: Is pIC50 at least 5? Consider "CCN(CC)C(=O)Oc1ccc(C(=O)Nc2cccc(CCNS(=O)(=O)c3ccccc3)c2)cc1"
Output line: True

Others:
Input line: Is pIC50 at least 5? Consider "CCN(CC)C(=O)Oc1ccc(C(=O)Nc2ccc(CNS(=O)(=O)c3cccnc3)cc2)cc1"
Output line: False

Input line: Is pIC50 at least 5? Consider "CCN(CC)C(=O)Oc1ccc(C(=O)Nc2cccc3cc[nH]c23)cc1"
Output line: True

Input line: Is pIC50 at least 5? Consider "CCN(CC)C(=O)Oc1ccc(C(=O)Nc2cccc(CCNS(=O)(=O)c3ccc(F)c(Cl)c3)c2)cc1"
Output line: True

###

Molecular target: Glutamate NMDA receptor; Grin1/Grin2c (Rattus norvegicus) (UniProt P35439+Q00961)
Assay: Negative allosteric modulation of recombinant rat GluN1/GluN2C expressed in Xenopus laevis oocytes assessed as inhibition of glutamate/glycine-induced current response at 30 uM at -40 mV holding potential by two-electrode voltage clamp method relative to glutamate/glycine
Format: cell-based
Conditions: values are per cent of control
Quick reference for residual activity among some molecules
Number only, in %; omit the unit.

Answered cases to consult:
Input line: Entry under review: "CCN(CC)C(=O)Oc1ccc(C(=O)Nc2cccc(CNS(=O)(=O)c3ccccc3)c2)cc1" . Reported residual activity?
Output line: 60

Input line: Entry under review: "CCN(CC)C(=O)Oc1ccc(C(=O)Nc2ccc(CNS(=O)(=O)c3cccnc3)cc2)cc1" . Reported residual activity?
Output line: 58

Input line: Entry under review: "CCN(CC)C(=O)Oc1ccc(C(=O)Nc2cccc(CCNS(=O)(=O)c3ccc(F)c(Cl)c3)c2)cc1" . Reported residual activity?
Output line: 41

Input line: Entry under review: "CCN(CC)C(=O)Oc1ccc(C(=O)Nc2cccc(CCNS(=O)(=O)c3ccccc3)c2)cc1" . Reported residual activity?
Output line: 9

Others:
Input line: Entry under review: "CCN(CC)C(=O)Oc1ccc(C(=O)Nc2cccc(CCNC(=O)c3ccccc3)c2)cc1" . Reported residual activity?
Output line: 56

###

Target: Ionotropic glutamate receptor NMDA 1/2D (Rattus norvegicus, UniProt P35439+Q62645)
Experiment: Negative allosteric modulation of recombinant rat GluN1/GluN2D expressed in Xenopus laevis oocytes assessed as inhibition of glutamate/glycine-induced current response at -40 mV holding potential by two-electrode voltage clamp method
Type: cell-based
Quick reference for IC50 among some compounds
Number only, in µM; omit the unit.

Input line: Entry under review: "CCN(CC)C(=O)Oc1ccc(C(=O)Nc2ccc(CNS(=O)(=O)c3ccccc3)cc2)cc1" . Reported IC50?
Output line: 10

Others:
Input line: Entry under review: "CCN(CC)C(=O)Oc1ccc(C(=O)Nc2cccc(C(=O)Nc3ccccc3)c2)cc1" . Reported IC50?
Output line: 8

Provenance of the data: ChEMBL document CHEMBL4339195
